- Target Or System: Myosin light chain kinase, smooth muscle (Gallus gallus)
- Assay Notes: Inhibition of native form of myosin light chain kinase at from chicken gizzard 100 uM
Residues, ends and D or L forms follow the SMILES beside them. *: point of attachment. OBn = c1ccc(CO*)cc1
Endpoint Label: inhibition (%)

* CC(C)[C@H](NC(=O)[C@H](CC(=O)O)NC(=O)[C@@H](N)CO)C(=O)N[C@@H](Cc1ccccc1)C(=O)N[C@@H](C)C(=O)OCc1ccccc1 (H-SDVFA-OBn) | 0
* CC(C)[C@H](NC(=O)[C@H](CC(N)=O)NC(=O)CN)C(=O)N[C@@H](Cc1ccccc1)C(=O)N[C@@H](C)C(=O)OCc1ccccc1 (H-GNVFA-OBn) | 37
* CC(C)[C@H](NC(=O)[C@@H](CC(N)=O)NC(=O)[C@@H](N)CO)C(=O)N[C@@H](Cc1ccccc1)C(=O)N[C@@H](C)C(=O)OCc1ccccc1 | 0
* CC(C)[C@@H](NC(=O)[C@H](CC(N)=O)NC(=O)[C@@H](N)CO)C(=O)N[C@@H](Cc1ccccc1)C(=O)N[C@@H](C)C(=O)OCc1ccccc1 | 0

Provenance of the data: ChEMBL document CHEMBL1124728
